Taken from ChEMBL document CHEMBL4622950.

// values below are reported inhibition of growth at 100 µg/mL
System: Mycobacterium tuberculosis
experiment_description: Antitubercular activity against Mycobacterium tuberculosis H37Ra assessed as bacterial growth inhibition at 100 ug/ml by MABA relative to control
Type: functional
reported_conditions: read-out: GI
measurement_type: inhibition of growth at 100 µg/mL (%)

>  <compound_string>
O=c1[nH]cc(C#CC2CC2)c(=O)[nH]1

>  <measurement_type>
inhibition of growth at 100 µg/mL

>  <units_of_measure>
%

>  <value_observed>
90

$$$$
>  <compound_string>
C[Si](C)(C)C#Cc1c[nH]c(=O)[nH]c1=O

>  <measurement_type>
inhibition of growth at 100 µg/mL

>  <units_of_measure>
%

>  <value_observed>
50

$$$$
>  <compound_string>
CCCCC#Cc1cn([C@@H]2O[C@H](CO)[C@@H](O)[C@H]2O)c(=O)[nH]c1=O

>  <measurement_type>
inhibition of growth at 100 µg/mL

>  <units_of_measure>
%

>  <value_observed>
90

$$$$
>  <compound_string>
CCCCCCC#Cc1cn([C@@H]2O[C@H](CO)[C@@H](O)[C@H]2O)c(=O)[nH]c1=O

>  <measurement_type>
inhibition of growth at 100 µg/mL

>  <units_of_measure>
%

>  <value_observed>
90

$$$$
>  <compound_string>
O=c1[nH]c(=O)n([C@@H]2O[C@H](CO)[C@@H](O)[C@H]2O)cc1C#CC1CC1

>  <measurement_type>
inhibition of growth at 100 µg/mL

>  <units_of_measure>
%

>  <value_observed>
90

$$$$
>  <compound_string>
O=c1[nH]cc(C#CC2CCCCC2)c(=O)[nH]1

>  <measurement_type>
inhibition of growth at 100 µg/mL

>  <units_of_measure>
%

>  <value_observed>
90

$$$$

====

experiment_description: Cytotoxicity against human MRC5 cells assessed as reduction in cell viability by MTT assay
Assay type: cell-based

>  <compound>
CC#Cc1c[nH]c(=O)[nH]c1=O

>  <units_of_measure>
µM

>  <CC50>
117

$$$$
>  <compound>
O=c1[nH]c(=O)n([C@@H]2O[C@H](CO)[C@@H](O)[C@H]2O)cc1C#Cc1ccccc1

>  <units_of_measure>
µM

>  <CC50>
1.2

$$$$
>  <compound>
O=c1[nH]c(=O)n([C@@H]2O[C@H](CO)[C@@H](O)[C@H]2O)cc1C#CC(O)c1ccccc1 (stereo not given in full)

>  <units_of_measure>
µM

>  <CC50>
0.9

$$$$
>  <compound>
O=c1[nH]c(=O)n([C@@H]2O[C@H](CO)[C@@H](O)[C@H]2O)cc1C#CC1CC1

>  <units_of_measure>
µM

>  <CC50>
24.2

$$$$
>  <compound>
C[Si](C)(C)C#Cc1c[nH]c(=O)[nH]c1=O

>  <units_of_measure>
µM

>  <CC50>
124

$$$$
>  <compound>
O=c1[nH]cc(C#CC2CCCCC2)c(=O)[nH]1

>  <units_of_measure>
µM

>  <CC50>
62.8

$$$$
>  <compound>
O=c1[nH]cc(C#CC2CC2)c(=O)[nH]1

>  <units_of_measure>
µM

>  <CC50>
101

$$$$
>  <compound>
CCC#Cc1c[nH]c(=O)[nH]c1=O

>  <units_of_measure>
µM

>  <CC50>
120

$$$$
>  <compound>
O=c1[nH]cc(C#Cc2ccccc2)c(=O)[nH]1

>  <units_of_measure>
µM

>  <CC50>
75.1

$$$$
>  <compound>
O=c1[nH]cc(C#CC(O)c2ccccc2)c(=O)[nH]1 (stereo not given)

>  <units_of_measure>
µM

>  <CC50>
38.4

$$$$
>  <compound>
CCCCC#Cc1c[nH]c(=O)[nH]c1=O

>  <units_of_measure>
µM

>  <CC50>
113

$$$$
>  <compound>
CCCCCCC#Cc1cn([C@@H]2O[C@H](CO)[C@@H](O)[C@H]2O)c(=O)[nH]c1=O

>  <units_of_measure>
µM

>  <CC50>
15.7

$$$$
>  <compound>
CCCCC#Cc1cn([C@@H]2O[C@H](CO)[C@@H](O)[C@H]2O)c(=O)[nH]c1=O

>  <units_of_measure>
µM

>  <CC50>
11.6

$$$$
>  <compound>
O=c1[nH]c(=O)n([C@@H]2O[C@H](CO)[C@@H](O)[C@H]2O)cc1C#CC1CCCCC1

>  <units_of_measure>
µM

>  <CC50>
36.8

$$$$
>  <compound>
CCCCCCC#Cc1c[nH]c(=O)[nH]c1=O

>  <units_of_measure>
µM

>  <CC50>
94.9

$$$$

====

Overview of recorded CC50 for various molecules
experiment_description: Cytotoxicity against human A549 cells assessed as reduction in cell viability by MTT assay
Assay type: cell-based

>  <molecule>
O=c1[nH]cc(C#CC(O)c2ccccc2)c(=O)[nH]1 (stereo not given)

>  <CC50 (µM)>
237

$$$$
>  <molecule>
CCCCC#Cc1c[nH]c(=O)[nH]c1=O

>  <CC50 (µM)>
250

$$$$
>  <molecule>
CCCCC#Cc1cn([C@@H]2O[C@H](CO)[C@@H](O)[C@H]2O)c(=O)[nH]c1=O

>  <CC50 (µM)>
83.2

$$$$
>  <molecule>
O=c1[nH]c(=O)n([C@@H]2O[C@H](CO)[C@@H](O)[C@H]2O)cc1C#CC(O)c1ccccc1 (stereo not given in full)

>  <CC50 (µM)>
34.2

$$$$
>  <molecule>
O=c1[nH]c(=O)n([C@@H]2O[C@H](CO)[C@@H](O)[C@H]2O)cc1C#CC1CC1

>  <CC50 (µM)>
115

$$$$
>  <molecule>
O=c1[nH]cc(C#CC2CC2)c(=O)[nH]1

>  <CC50 (µM)>
251

$$$$
>  <molecule>
O=c1[nH]c(=O)n([C@@H]2O[C@H](CO)[C@@H](O)[C@H]2O)cc1C#Cc1ccccc1

>  <CC50 (µM)>
42.5

$$$$
>  <molecule>
O=c1[nH]c(=O)n([C@@H]2O[C@H](CO)[C@@H](O)[C@H]2O)cc1C#CC1CCCCC1

>  <CC50 (µM)>
127

$$$$
>  <molecule>
O=c1[nH]cc(C#CC2CCCCC2)c(=O)[nH]1

>  <CC50 (µM)>
245

$$$$
>  <molecule>
CC#Cc1c[nH]c(=O)[nH]c1=O

>  <CC50 (µM)>
256

$$$$
>  <molecule>
CCCCCCC#Cc1c[nH]c(=O)[nH]c1=O

>  <CC50 (µM)>
249

$$$$
>  <molecule>
C[Si](C)(C)C#Cc1c[nH]c(=O)[nH]c1=O

>  <CC50 (µM)>
268

$$$$
>  <molecule>
CCCCCCC#Cc1cn([C@@H]2O[C@H](CO)[C@@H](O)[C@H]2O)c(=O)[nH]c1=O

>  <CC50 (µM)>
87.2

$$$$
>  <molecule>
CCC#Cc1c[nH]c(=O)[nH]c1=O

>  <CC50 (µM)>
253

$$$$
>  <molecule>
O=c1[nH]cc(C#Cc2ccccc2)c(=O)[nH]1

>  <CC50 (µM)>
248

$$$$

====

experiment_description: Cytotoxicity against African green monkey Vero cells assessed as reduction in cell viability by MTT assay
Format: cell-based
reported_conditions: chlorocebus sabaeus
Reported CC50 values follow for various compounds
measurement_type: CC50 (µM)

>  <compound>
CCCCC#Cc1c[nH]c(=O)[nH]c1=O

>  <measurement_type>
CC50

>  <value_observed>
253

$$$$
>  <compound>
O=c1[nH]c(=O)n([C@@H]2O[C@H](CO)[C@@H](O)[C@H]2O)cc1C#Cc1ccccc1

>  <measurement_type>
CC50

>  <value_observed>
78.4

$$$$
>  <compound>
O=c1[nH]c(=O)n([C@@H]2O[C@H](CO)[C@@H](O)[C@H]2O)cc1C#CC1CCCCC1

>  <measurement_type>
CC50

>  <value_observed>
148

$$$$
>  <compound>
O=c1[nH]c(=O)n([C@@H]2O[C@H](CO)[C@@H](O)[C@H]2O)cc1C#CC(O)c1ccccc1 (stereo not given in full)

>  <measurement_type>
CC50

>  <value_observed>
65.4

$$$$
>  <compound>
CCCCC#Cc1cn([C@@H]2O[C@H](CO)[C@@H](O)[C@H]2O)c(=O)[nH]c1=O

>  <measurement_type>
CC50

>  <value_observed>
103

$$$$
>  <compound>
O=c1[nH]cc(C#CC(O)c2ccccc2)c(=O)[nH]1 (stereo not given)

>  <measurement_type>
CC50

>  <value_observed>
242

$$$$
>  <compound>
CCCCCCC#Cc1c[nH]c(=O)[nH]c1=O

>  <measurement_type>
CC50

>  <value_observed>
250

$$$$
>  <compound>
O=c1[nH]c(=O)n([C@@H]2O[C@H](CO)[C@@H](O)[C@H]2O)cc1C#CC1CC1

>  <measurement_type>
CC50

>  <value_observed>
133

$$$$
>  <compound>
CCC#Cc1c[nH]c(=O)[nH]c1=O

>  <measurement_type>
CC50

>  <value_observed>
263

$$$$
>  <compound>
O=c1[nH]cc(C#CC2CC2)c(=O)[nH]1

>  <measurement_type>
CC50

>  <value_observed>
252

$$$$
